Experiment: amyloid nucleation score (Sup35N fusion, yeast selection) (log enrichment); library NNK3; higher = more nucleation; inactive = no reads after selection;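 further: zero at mode of non-aggregating sequences after 7 days selection at 30°C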
PROPERTY_MEASURED: amyloid nucleation score

Take a look at these entries with their results.
* IANLRAFILFMCDMKSTNPK | inactive
* YLAPHMSATVVLDNEFGPES | inactive
* KILLHRRHVTPCFKCLNRLD | inactive
* CVWTSVLDVRYLYWCNVDVR | inactive
* MVVSVQIVFVQVTDMVYHVN | 0.393

Prompt line: Please look at this substance and report its amyloid nucleation score: "YMAAVQSTKRNFMHCNKVGS"
Response line: inactive

Prompt line: Please look at this substance and report its amyloid nucleation score: "RNTDLL"
Response line: inactive

Prompt line: Please look at this substance and report its amyloid nucleation score: "YFIALCINSDKPPVHGVAVV"
Response line: inactive

Prompt line: Please look at this substance and report its amyloid nucleation score: "FCVPKCYSHWYLVFS"
Response line: 1.03

Prompt line: Please look at this substance and report its amyloid nucleation score: "GLAQTSLFI"
Response line: inactive

###

Assay: amyloid nucleation score (Sup35N fusion, yeast selection) (log enrichment); library NNK2; higher = more nucleation; inactive = no reads after selection
Output: class label from amyloid nucleation score. Mapping: bin A = under 0.04, bin B = from 0.04 up to 2, bin C = 2 and over

Prompt line: Band for "LNYCHILSMYGNIAIIRSQF" ?
Response line: bin C

###

Recorded amyloid nucleation score for the following sequences
Assay: amyloid nucleation score (Sup35N fusion, yeast selection) (log enrichment); library NNK2; higher = more nucleation; inactive = no reads after selection
Returns: the value as a bare number; no unit string appended.

• PIRPVLWVQFVKTQYGPMIP = 4.68
• VTNCNPDRW = -0.149
• KYIYVYNSIGVP = -0.277
• RILTVYVPV = 1.19
• IAVRMALGLENNKFFLIVHK = -1.44

Prompt line: Please look at this sequence and report its amyloid nucleation score: "TFNLVILGVGHSHHFQRNNH"
Response line: 8.27

Prompt line: Please look at this sequence and report its amyloid nucleation score: "MSRWKVHFTMRTSPCIVNEH"
Response line: 1.17

Prompt line: Please look at this sequence and report its amyloid nucleation score: "SYHWTGVFGLVHDFGLCCGS"
Response line: 0.425

Prompt line: Please look at this sequence and report its amyloid nucleation score: "FTLALSYITRTKSTHAC"
Response line: -0.27

Prompt line: Please look at this sequence and report its amyloid nucleation score: "WFYTYSLFGFVVNIVFTYPL"
Response line: -0.176

Prompt line: Please look at this sequence and report its amyloid nucleation score: "LNQSKFGKVGTSSVFWLFYN"
Response line: -1.01

Prompt line: Please look at this sequence and report its amyloid nucleation score: "RSSGSSWRLNYLDEDTVVAR"
Response line: 1

Prompt line: Please look at this sequence and report its amyloid nucleation score: "YRVNALKQIMLRLKQFCRLA"
Response line: -0.647

###

Assay: amyloid nucleation score (Sup35N fusion, yeast selection) (log enrichment); library NNK2; higher = more nucleation; inactive = no reads after selection
PROPERTY_MEASURED: amyloid nucleation score
Returns: the value as a bare number; no unit string appended.

Take a look at these entries with their results.
- DVHRWKIWQASG: 0.901
- MPHLVVTNAPGVSIRVGSDW: -0.888
- HEYVAALGWMAEGLSKFLKR: 0.579
- GKGWKSVVYSNMGRVSGCCK: 2.81
- QLALLMFMQTFNSYS: 7.43

# context switch: different sequence, same amyloid nucleation score
Prompt line: Please look at this sequence and report its amyloid nucleation score: "RYLSLVFVYIVGVLYSSCDV"
Response line: 0.383
